Molecular target: h FPR2 (Homo sapiens, UniProt P25090)
Sequence (P25090 1-351): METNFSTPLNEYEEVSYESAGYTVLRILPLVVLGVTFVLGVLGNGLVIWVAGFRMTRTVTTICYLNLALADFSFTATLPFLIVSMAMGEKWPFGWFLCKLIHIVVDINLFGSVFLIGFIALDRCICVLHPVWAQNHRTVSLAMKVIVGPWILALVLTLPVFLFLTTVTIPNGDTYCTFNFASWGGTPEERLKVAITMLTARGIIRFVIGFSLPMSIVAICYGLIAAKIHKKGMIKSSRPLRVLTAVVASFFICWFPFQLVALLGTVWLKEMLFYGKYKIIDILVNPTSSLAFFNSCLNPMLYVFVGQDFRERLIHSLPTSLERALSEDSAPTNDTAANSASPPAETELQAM
Assay: Agonistic activity in hFPR2-Aq-CHO cells (FLIPR Calcium 5 fluorescence assay)
Conditions: 11 point half log dilution, final assay concentration from 10µM
measured_property: EC50

State its EC50 on h FPR2 (Homo sapiens, UniProt P25090): COc1ccc([C@@H]2CN(c3ccc(F)cc3)CC[C@H]2NC(=O)Nc2ccc(Cl)cc2)nc1 (relative stereo) [Ex-18] 0.8 nM

Query the reported EC50 for h FPR2 (Homo sapiens, UniProt P25090); item: COc1ccc([C@@H]2CN(C(=O)CCO)CC[C@H]2NC(=O)Nc2ccc(Cl)cc2)nc1 (relative stereo) [Ex-102] 27 nM

// lookup EC50 | system=h FPR2 (Homo sapiens, UniProt P25090) | key= COc1ccc([C@@H]2CN(C(=O)c3ccc(C(F)(F)F)nc3)CC[C@H]2NC(=O)Nc2ccc(Cl)cc2)nc1 (single isomer, unassigned) [Ex-100] 93 nM
